- Tested target: T1, RrMbnBC complex (Rugamonas rubra ATCC 43154)
- T1 chain 1: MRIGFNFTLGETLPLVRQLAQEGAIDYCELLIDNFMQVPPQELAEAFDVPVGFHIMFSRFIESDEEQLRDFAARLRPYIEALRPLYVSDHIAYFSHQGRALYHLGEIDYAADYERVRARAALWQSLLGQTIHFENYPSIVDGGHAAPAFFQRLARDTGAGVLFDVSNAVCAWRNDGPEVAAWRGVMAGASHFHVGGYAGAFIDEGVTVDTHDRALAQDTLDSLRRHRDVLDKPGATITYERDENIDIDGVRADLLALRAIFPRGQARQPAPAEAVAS
- T1 chain 2: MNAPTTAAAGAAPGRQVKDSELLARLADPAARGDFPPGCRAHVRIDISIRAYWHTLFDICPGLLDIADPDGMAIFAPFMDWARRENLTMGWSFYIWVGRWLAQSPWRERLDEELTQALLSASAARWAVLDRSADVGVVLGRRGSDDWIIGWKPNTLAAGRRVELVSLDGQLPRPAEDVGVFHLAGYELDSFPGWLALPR
- Assay summary: ITC
Quantity name: pKd
Answers are plain numbers, as −log10 of the molar value.

Which pKd is listed for MKIVIVKKVEIQVAGRTGMRCASSCGAKS [RrMbnA peptide] ?
5.57
